# Test system: NCI-H226
# ASSAY_PROCEDURE: NCI tumour cell line growth inhibition, 48 h
Calls of active or inactive are those of the source. Rule as the data show it: active = GI50 up to about 1.1 µM and inactive = higher.
QUANTITY_MEASURED: GI50

INSERT INTO results (compound, test_system, recorded_measurement) VALUES
  ('COc1ccc2c(c1OC)OC[C@@H](C1=CC(=O)C=C(O)C1=O)C2', 'NCI-H226', '19.6 µM (inactive)'),
  ('COc1ccc(CCCNC(=O)c2cc(OC)c(OC)cc2CCO)cc1OC', 'NCI-H226', '> 100 µM (inactive)'),
  ('O=C(CCCN1CCC2(CC1)CC(c1ccccc1)OC2=O)c1ccc(F)cc1 (stereo not drawn)', 'NCI-H226', '53.7 µM (inactive)'),
  ('CCOC(=O)CC1=CSC2=NCCN12', 'NCI-H226', '> 100 µM (inactive)'),
  ('COc1cc(OCc2ccc3nc(-c4ccccc4)c(N)nc3c2)cc(OC)c1OC', 'NCI-H226', '21.3 µM (inactive)'),
  ('C/C=C/[C@H]1O[C@@](O)([C@@H](C)[C@H](O)[C@H](C)[C@H]2OC(=O)/C(OC)=C/C(C)=C/[C@@H](C)[C@@H](O)[C@@H](CC)[C@@H](O)[C@H](C)C/C(C)=C/C=C/[C@@H]2OC)C[C@H](OC2CC(O)C(O)C(C)O2)[C@@H]1C (stereo partly drawn)', 'NCI-H226', '< 0.0075 µM (active)'),
  ('Nc1nc(Cl)cc(NCC2(CO)CCC(CCc3ccccc3)C2)n1 (stereo not drawn)', 'NCI-H226', '16.5 µM (inactive)'),
  ('COC(=O)[C@@H]1C[C@@H](O)CN1C(=O)c1ccc([N+](=O)[O-])cc1[N+](=O)[O-]', 'NCI-H226', '> 100 µM (inactive)');

---

Overview of reported GI50 across a group of molecules:
# System: BT-549
# ASSAY_PROCEDURE: NCI tumour cell line growth inhibition, 48 h
Activity calls are given as the source filed them. No stated cut-off is given here; in the data, active = GI50 up to about 1.1 µM and inactive = higher.
QUANTITY_MEASURED: GI50

INSERT INTO assay_data (molecule, quantity_measured, recorded_measurement) VALUES
  ('C/C1=C/C(C)CC(C)OC(=O)C(C)NC(=O)C(Cc2ccc(O)c(I)c2)N(C)C(=O)CNC(=O)C(C)C1 (stereo unspecified)', 'GI50', '< 0.01 µM (active)'),
  ('CCOC(=O)C1(C#N)C2(C#N)C(N)=NC(ON=C(C)C)(ON=C(C)C)C12C#N (stereo unspecified)', 'GI50', '> 100 µM (inactive)'),
  ('CC1C2CC(C(S(=O)(=O)N3CCOCC3)/C2=N\O)C1(C)C (stereo unspecified)', 'GI50', '> 100 µM (inactive)'),
  ('CN(CCN)[C@H](CSSC[C@@H](c1ccccc1O)N(C)CCN)c1ccccc1O', 'GI50', '9.95 µM (inactive)'),
  ('CC(=O)c1c(-c2ccc(Cl)cc2)c(C#N)c(=S)n(C2OC(CO)C(O)C(O)C2O)c1-c1ccccc1 (stereo unspecified)', 'GI50', '> 100 µM (inactive)'),
  ('N#CC1(C#N)NC(c2cccs2)C(C#N)(C#N)NC1c1cccs1 (stereo unspecified)', 'GI50', '21.2 µM (inactive)'),
  ('CC(=O)OCC1OC(N2C(=O)NC(=O)C3C=C4CCCCC4=CC32)CC1OC(C)=O (stereo unspecified)', 'GI50', '> 100 µM (inactive)'),
  ('CCOc1ccc2ccc3cccnc3c2n1', 'GI50', '> 100 µM (inactive)'),
  ('CN(C)CC(C)(C)CN1c2ccccc2Sc2ccccc21', 'GI50', '14 µM (inactive)'),
  ('Cn1c(=O)n2n(c1=O)[C@@H](c1ccccc1)[C@H]2c1ccccc1', 'GI50', '> 100 µM (inactive)'),
  ('CC1(C)OC(=O)N(c2ccccc2)C12C=Cc1cccc([N+](=O)[O-])c1O2 (stereo unspecified)', 'GI50', '> 100 µM (inactive)'),
  ('Cn1c([C@H](C#N)C(=O)c2cc(O)ccc2[N+](=O)[O-])nc2ccccc21', 'GI50', '16 µM (inactive)'),
  ('O=P(O)(O)c1ccc(-c2ccc(I)cc2)cc1', 'GI50', '> 100 µM (inactive)'),
  ('Cc1ccc(CNNC(=O)c2cc[n+]([BH2-]C#N)cc2)cc1', 'GI50', '> 100 µM (inactive)'),
  ('Cc1cc(C)c(S(=O)(=O)N(CCCCCCN)OCCCON(CCCCCCN)S(=O)(=O)c2c(C)cc(C)cc2C)c(C)c1', 'GI50', '1.65 µM (inactive)'),
  ('CCc1ncc(CO)n1Cc1cccc2ccccc12', 'GI50', '> 100 µM (inactive)'),
  ('NC(=O)C1=C(c2ccccc2)c2ccccc2C1=O', 'GI50', '16.9 µM (inactive)'),
  ('O=C[C@@H](CO)O[C@H](C=O)n1cnc2c(=O)nc[nH]c21', 'GI50', '282 µM (inactive)'),
  ('CCOc1ccc(NC(=O)/C(=N\NC(C)(C)C)C2C(=O)Nc3ccccc3[S+]2[O-])cc1 (stereo unspecified)', 'GI50', '> 100 µM (inactive)'),
  ('Cn1c(C(C#N)c2cc(Cl)ncn2)nc2ccccc21 (stereo unspecified)', 'GI50', '> 100 µM (inactive)'),
  ('Nc1nc(Cl)cc(NCC2(CO)CCC(CCc3ccccc3)C2)n1 (stereo unspecified)', 'GI50', '14 µM (inactive)');
